- MEASUREMENT TARGET: Y181C RT RDDP (Human immunodeficiency virus type 1 group M subtype B, UniProt P03366, Y780C)
- ASSAY PROCEDURE: biochemical
MEASURED ENDPOINT: IC50

INSERT INTO results (compound, data_value) VALUES
  ('O=C1c2ccccc2C(=O)c2c1ccc(O)c2O [Alizarine, alizarine]', '> 100 µM');
